Target: recombinant ATX (mouse ATX-β) (Mus musculus, UniProt Q9R1E6)
Construct: purchased Sino Biological
Assay: Inhibition of ATX, Amplex Red PLD assay kit
Format: biochemical
Settings: hydroxamates; substrate 50 μM LPC 18:0; 2 nM recombinant ATX; mean of two independent experiments; read-out: IC50 (μM) 18:0 LPC
measurement.kind: IC50 (µM)
Write the value in µM as a bare number.

Look at this molecule and give its reported IC50. CCCCCCCCc1ccc(OCC(=O)Nc2ccc(CC(=O)NO)cc2)cc1
0.3

New cases:
Item under review: COC(=O)[C@@H](CCC(=O)NO)NC(=O)CCCCC(=O)Nc1ccccc1 . Reported IC50?
5

Consider the molecule shown here: O=C(Cc1ccc(NC(=O)CCCCNC(=O)c2ccccc2)cc1)NO What is its recorded IC50?
0.2

Would you kindly share the measured IC50 for CCCCCCCCCCCCCC(=O)Nc1ccc(CC(=O)NO)cc1 ?
0.2

Please report the recorded IC50 for O=C(Cc1ccc(NC(=O)CCCCCCc2ccccc2)cc1)NO .
2
